The reader will find reported Ki values listed item by item below.
assay: In vitro alpha-2 adrenergic receptor binding affinity was determined on calf frontal cortex membrane preparation; type: tissue-based, Bos taurus
PARAMETER MEASURED: Ki (nM)

{"MOLECULE": "CN1CC(C2=NCCN2)Oc2ccc(CO)cc21 (configuration not stated)", "PARAMETER MEASURED": "Ki", "RESULT NUMBER": 10.4}
{"MOLECULE": "CCCN1CC(C2=NCCN2)Oc2ccccc21 (configuration not stated)", "PARAMETER MEASURED": "Ki", "RESULT NUMBER": 132}
{"MOLECULE": "CN1CC(C2=NCCN2)Oc2cc3ccccc3cc21 (configuration not stated)", "PARAMETER MEASURED": "Ki", "RESULT NUMBER": 402}
{"MOLECULE": "Cc1cc(C)c2c(c1)N(C)CC(C1=NCCN1)O2 (configuration not stated)", "PARAMETER MEASURED": "Ki", "RESULT NUMBER": 12.4}
{"MOLECULE": "CN1CC(C2=NCCN2)Oc2ccc(F)cc21 (stereo in doubt; (+)4h)", "PARAMETER MEASURED": "Ki", "RESULT NUMBER": 68.2}
{"MOLECULE": "CN1CC(C2=NCCN2)Oc2ccc(C(F)(F)F)cc21 (configuration not stated)", "PARAMETER MEASURED": "Ki", "RESULT NUMBER": 263}
{"MOLECULE": "Cc1ccc2c(c1)OC(C1=NCCN1)CN2C (configuration not stated)", "PARAMETER MEASURED": "Ki", "RESULT NUMBER": 30}

* * *

test system: Rattus norvegicus; experiment: Effect (25 mg/kg ip) on mean arterial blood pressure in anesthetized spontaneously hypertensive rats; format: functional
PARAMETER MEASURED: Variation (%)

{"COMPOUND": "c1cc2c3c(c1)OC(C1=NCCN1)CN3CC2 (stereo not given)", "UNIT INFO": "%", "RESULT NUMBER": -30}
{"COMPOUND": "CN1CC(C2=NCCN2)Oc2c1ccc1ccccc21 (stereo not given)", "UNIT INFO": "%", "RESULT NUMBER": -8}
{"COMPOUND": "CN1CC(C2=NCCN2)Oc2ccc(F)cc21 (stereo in doubt; 4h)", "UNIT INFO": "%", "RESULT NUMBER": -36}
{"COMPOUND": "CCCN1CC(C2=NCCN2)Oc2ccccc21 (stereo not given)", "UNIT INFO": "%", "RESULT NUMBER": -14}
{"COMPOUND": "Cc1cccc2c1OC(C1=NCCN1)CN2C (stereo not given)", "UNIT INFO": "%", "RESULT NUMBER": -13}
{"COMPOUND": "CN1CC(C2=NCCN2)Oc2ccccc21 (stereo not given)", "UNIT INFO": "%", "RESULT NUMBER": -21}
{"COMPOUND": "Cc1ccc2c(c1)N(C)CC(C1=NCCN1)O2 (stereo not given)", "UNIT INFO": "%", "RESULT NUMBER": -175}
{"COMPOUND": "CCCC1(C2=NCCN2)CN(C)c2ccccc2O1 (stereo not given)", "UNIT INFO": "%", "RESULT NUMBER": 11}
{"COMPOUND": "COc1ccc2c(c1)N(C)CC(C1=NCCN1)O2 (stereo not given)", "UNIT INFO": "%", "RESULT NUMBER": -8}
{"COMPOUND": "c1cc2c3c(c1)OC(C1=NCCN1)CN3CCC2 (stereo not given)", "UNIT INFO": "%", "RESULT NUMBER": -20}
{"COMPOUND": "COc1cc(=O)n2c3c(cccc13)OC(C1=NCCN1)C2 (stereo not given)", "UNIT INFO": "%", "RESULT NUMBER": -5}
{"COMPOUND": "COc1cc(=O)n2c3c(ccc(C)c13)OC(C1=NCCN1)C2 (stereo not given)", "UNIT INFO": "%", "RESULT NUMBER": 0}
{"COMPOUND": "CN1CC(C)(C2=NCCN2)Oc2ccccc21 (stereo not given)", "UNIT INFO": "%", "RESULT NUMBER": -9}
{"COMPOUND": "Cc1ccc2c3c1CCCN3CC(C1=NCCN1)O2 (stereo not given)", "UNIT INFO": "%", "RESULT NUMBER": -9}
{"COMPOUND": "Cc1cc2c(cc1C)N(C)CC(C1=NCCN1)O2 (stereo not given)", "UNIT INFO": "%", "RESULT NUMBER": -5}
